- Assay name: Pharmacokinetics after intravenous and subcutaneous administration in cynomolgus monkeys
- Type: in vivo
- Stated conditions: cynomolgus monkey, plasma, iv, 1.76 mg/kg, Intravenous Solution, 1.76 mg/kg, n = 4; read-out: t1/2 β (converted)
Measurement type: half-life (h)
Report the figure in h without appending any unit label.

// `N=C(N)c1ccc2nc(-c3cc(CC(=O)N[C@@H](CC(=O)O)C(=O)O)cc(-c4cc(S(N)(=O)=O)ccc4O)c3O)[nH]c2c1` : half-life value = 2.19

###

- Assay name: Pharmacokinetics after intravenous and subcutaneous administration in cynomolgus monkeys
- Format: in vivo
- Stated conditions: cynomolgus monkey, plasma, iv, 1.76 mg/kg, Intravenous Solution, 1.76 mg/kg, n = 4; read-out: t1/2 α (converted)
Measurement type: half-life (min)
Just the number in min, nothing appended.

// `N=C(N)c1ccc2nc(-c3cc(CC(=O)N[C@@H](CC(=O)O)C(=O)O)cc(-c4cc(S(N)(=O)=O)ccc4O)c3O)[nH]c2c1` : half-life value = 9.72
